Assay: Cytotoxicity against HEK293 cells assessed as cell growth inhibition measured after 72 hrs by resazurin dye based fluorescence assay relative to IC50
Type: toxicity
Settings: human
Item-by-item account of IC50 at 72 h
Give just the number in µM; leave the unit off.

Cn1cc(NC(=O)c2cc(NC(=O)c3ccc(/C=C/c4ccc(F)cc4)cc3)cn2C)cc1C(=O)NCCC(=N)N
40
Cn1cc(NC(=O)c2cc(NC(=O)c3ccc(/C=C/C(=O)Nc4ccccc4O)cc3)cn2C)cc1C(=O)NCCC(=N)N
40
COc1cccc(/C=C/c2ccc(C(=O)Nc3cc(C(=O)Nc4cc(C(=O)NCCN(C)C)n(C)c4)n(C)c3)cc2)c1
20
Cn1cc(NC(=O)c2cc(NC(=O)c3ccc(NC(=O)c4ccc(F)cc4)cc3)cn2C)cc1C(=O)NCCC(=N)N
35
COc1ccc(/C=C/c2ccc(C(=O)Nc3cc(C(=O)Nc4cc(C(=O)NCCC(=N)N)n(C)c4)n(C)c3)cc2)cc1.O=C(O)C(F)(F)F
40
Cn1cc(NC(=O)c2cc(NC(=O)c3ccc(/C=C/c4ccncc4)cc3)cn2C)cc1C(=O)NCCC(=N)N
40

Input: Using the record for "Cn1cc(NC(=O)c2cc(NC(=O)c3ccc(/C=C/c4ccc5nsnc5c4)cc3)cn2C)cc1C(=O)NCCN1CCOCC1" , report its IC50 at 72 h.
Output: 11

Input: Using the record for "COc1cccc(/C=C/c2ccc(C(=O)Nc3cc(C(=O)Nc4cc(C(=O)NCCCN(C)C)n(C)c4)n(C)c3)cc2)c1" , report its IC50 at 72 h.
Output: 35

Input: Using the record for "Cn1cc(NC(=O)c2cc(NC(=O)c3ccc(/C=C/c4ccc(C(F)(F)F)cc4)cc3)cn2C)cc1C(=O)NCCN1CCOCC1" , report its IC50 at 72 h.
Output: 40

Values from ChEMBL document CHEMBL6114936
